biological target: FEN1 (hFEN1) (human, UniProt P39748 1-380); experiment: EMSA
Sequence (P39748 whole entry): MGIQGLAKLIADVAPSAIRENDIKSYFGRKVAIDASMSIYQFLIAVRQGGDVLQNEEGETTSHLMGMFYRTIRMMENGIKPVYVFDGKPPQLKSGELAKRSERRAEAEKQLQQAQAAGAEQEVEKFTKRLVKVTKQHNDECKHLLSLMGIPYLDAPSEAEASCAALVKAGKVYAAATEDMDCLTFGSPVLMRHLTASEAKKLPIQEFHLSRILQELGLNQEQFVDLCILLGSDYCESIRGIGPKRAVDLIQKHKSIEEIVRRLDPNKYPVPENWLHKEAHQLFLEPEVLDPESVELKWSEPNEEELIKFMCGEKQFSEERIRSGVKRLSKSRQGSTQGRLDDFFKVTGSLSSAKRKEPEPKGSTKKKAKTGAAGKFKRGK
Measurement kind: binding result

Binder	binding result
15 nt double flap (U1:T1:D1.15) (mixed) DNA 1: TAATTCACTGGCCGTCGTTTTACAACGACGTGACTGGG DNA 2: GCCCAGTCACGTCGTTGTAAAACGGGTCGTGACTGGGAAAACCCTGGCG DNA 3: CGCCAGGGTTTTCCCAGTCACGACCA	binds
20 nt double flap (U1:T1:D1.20) (mixed) DNA 1: TTAGTTAATTCACTGGCCGTCGTTTTACAACGACGTGACTGGG DNA 2: GCCCAGTCACGTCGTTGTAAAACGGGTCGTGACTGGGAAAACCCTGGCG DNA 3: CGCCAGGGTTTTCCCAGTCACGACCA	binds
5 nt double flap (U1:T1:D1.5) (mixed) DNA 1: GCCGTCGTTTTACAACGACGTGACTGGG DNA 2: GCCCAGTCACGTCGTTGTAAAACGGGTCGTGACTGGGAAAACCCTGGCG DNA 3: CGCCAGGGTTTTCCCAGTCACGACCA	binds
10 nt double flap (U1:T1:D1.10) (mixed) DNA 1: CACTGGCCGTCGTTTTACAACGACGTGACTGGG DNA 2: GCCCAGTCACGTCGTTGTAAAACGGGTCGTGACTGGGAAAACCCTGGCG DNA 3: CGCCAGGGTTTTCCCAGTCACGACCA	binds

Next, consider the following binder.
Q. Given the entry 30 nt double flap (U1:T1:D1.30) (mixed) DNA 1: TTCACGCCTGTTAGTTAATTCACTGGCCGTCGTTTTACAACGACGTGACTGGG DNA 2: GCCCAGTCACGTCGTTGTAAAACGGGTCGTGACTGGGAAAACCCTGGCG DNA 3: CGCCAGGGTTTTCCCAGTCACGACCA , report its measured binding result.
A. binds
